target or system: T1, human IL-25 expressed with a C-terminal myc-myc-hexahistidine tag (human)
T1 construct: also called hIL-25-MMH; Human IL-25-MMH
T1 chain: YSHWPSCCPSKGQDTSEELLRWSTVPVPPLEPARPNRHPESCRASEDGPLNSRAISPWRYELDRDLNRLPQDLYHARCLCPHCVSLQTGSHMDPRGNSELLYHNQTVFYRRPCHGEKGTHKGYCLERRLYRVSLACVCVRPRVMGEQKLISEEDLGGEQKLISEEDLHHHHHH
protocol summary: competition ELISA, 2 nM hIL-25-MMH binding to coated hIL-17RB-hFc
Quick list: % Maximum blocking of 200 nM antibody per entry.
Answer with a number only, understood to be in %.

binder	endpoint unit	% Maximum blocking of 200 nM antibody
H4H10897P (antibody, human IgG4, V domains shown, H4H prefix = human IgG4 Fc) VH: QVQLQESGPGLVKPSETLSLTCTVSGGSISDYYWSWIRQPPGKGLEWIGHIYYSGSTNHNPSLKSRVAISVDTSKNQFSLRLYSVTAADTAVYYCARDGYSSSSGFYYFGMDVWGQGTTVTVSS VL: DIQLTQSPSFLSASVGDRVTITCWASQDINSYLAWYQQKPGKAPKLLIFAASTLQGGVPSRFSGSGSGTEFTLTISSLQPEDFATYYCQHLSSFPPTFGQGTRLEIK	%	94
H4H10905P (antibody, human IgG4, V domains shown, H4H prefix = human IgG4 Fc) VH: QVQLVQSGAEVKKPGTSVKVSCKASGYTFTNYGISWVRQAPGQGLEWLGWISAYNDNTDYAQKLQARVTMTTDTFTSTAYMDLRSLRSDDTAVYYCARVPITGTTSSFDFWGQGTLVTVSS VL: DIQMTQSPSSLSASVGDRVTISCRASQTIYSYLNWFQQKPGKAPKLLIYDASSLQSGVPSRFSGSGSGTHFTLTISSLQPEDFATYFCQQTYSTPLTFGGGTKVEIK	%	86

Determine from records and report % Maximum blocking of 200 nM antibody for H4H10861P (antibody, human IgG4, V domains shown, H4H prefix = human IgG4 Fc) VH: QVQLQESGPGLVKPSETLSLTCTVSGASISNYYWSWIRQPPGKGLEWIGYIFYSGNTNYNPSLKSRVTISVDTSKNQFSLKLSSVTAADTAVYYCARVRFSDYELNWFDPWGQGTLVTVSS VL: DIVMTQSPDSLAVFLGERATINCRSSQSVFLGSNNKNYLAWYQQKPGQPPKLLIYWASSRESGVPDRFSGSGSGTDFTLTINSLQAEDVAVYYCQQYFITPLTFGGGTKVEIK
92
